testedSystem: T1, pwt1, unmodified CCR8 related peptide (human, none (non-sulfated Y15, Y16, Y17))
T1 construct: First 34 amino acids of human CCR8, synthetic; also called unmodified peptide
T1 sequence (peptide, as listed by the source): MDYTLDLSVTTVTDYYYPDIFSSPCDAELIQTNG
assayComment: ELISA on coated CCR8 peptide (500 ng/mL), OD [cont.]
observationType: binding result

[[record]]
binder = "anti-CCR8 mAb 2-3 (antibody, V domains shown) VH: EVQLQQSGPELLKPGTSVKISCTTSGYTFSDYTLHWVKQSHGKSLEWIGGITPKNGDTRYDPRFKDKATLTIDKSSSAAYMELRSLTSEDSAVYYCARVARFYGVSPYAMDYWGQGASVTVSS VL: DVVMTQTPLSLPVSLGDQASISCRCTQSLLHSNGDTYLHWYLQKPGQSPKLLIYKVSNRFSGVPDRFSGSGSGTDFTLEITRVEAEDLGVYFCSQTTHVPYTFGGGTKLEIK"
observationtype = "binding result"
result = "binds"

[[record]]
binder = "anti-CCR8 mAb 2-4 (antibody, V domains shown) VH: EVQLQQSGPELVKPGASVKISCKTSGYTFTEYTIHWVKQSHGESLEWVGGINPNNGNTRYDQKFKGKATLTIDKSSSPAYMELRSLTSEDSAVYYCARVARSSGSGPYAMDYWGQGTSVTVSS VL: DVVMTQTPLSLPVSLGDQASISCRCTQSLLHTNGDTYLHWYLQKPGQSPKLLIYKVSNRFSGVPDRFSGSGSGTDFTLKISRVEAEDLGVYFCSQSTHVPYTFGGGTKLEIK"
observationtype = "binding result"
result = "binds"

